Protein target, amino acids: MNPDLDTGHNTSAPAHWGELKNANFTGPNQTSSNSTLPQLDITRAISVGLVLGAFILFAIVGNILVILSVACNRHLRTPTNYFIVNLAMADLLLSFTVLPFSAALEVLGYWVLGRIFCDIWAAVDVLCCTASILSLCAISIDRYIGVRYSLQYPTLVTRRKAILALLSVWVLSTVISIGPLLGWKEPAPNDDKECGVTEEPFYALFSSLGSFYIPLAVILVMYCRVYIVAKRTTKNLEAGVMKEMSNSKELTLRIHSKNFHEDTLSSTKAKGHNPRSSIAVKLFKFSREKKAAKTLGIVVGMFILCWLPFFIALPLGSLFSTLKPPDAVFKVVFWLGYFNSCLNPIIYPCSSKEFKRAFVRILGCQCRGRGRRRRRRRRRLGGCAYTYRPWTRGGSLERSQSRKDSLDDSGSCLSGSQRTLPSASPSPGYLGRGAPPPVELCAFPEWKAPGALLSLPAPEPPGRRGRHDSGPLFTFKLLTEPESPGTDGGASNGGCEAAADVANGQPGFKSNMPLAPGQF
reported.property: pKi
Just so you know, pKi here is -log10 of the concentration in molar units; reply with that number alone.

Exercise: Answer with the recorded pKi of "COc1cc2nc(N3CCN(C(=S)Nc4ccc(-c5c6ccc(=O)cc-6oc6cc(O)ccc56)c(C(=O)O)c4)CC3)nc(N)c2cc1OC" only.
Solution: 8.14
